conditions: 328.15 K; 40000 kPa; Liquid; Vibrating tube method
Please respond with reported mass density for every item in the list.
Numbers only, in kg/m3.

Sample answers from the record:
> print(dat)
   record.smiles  reading
1        c1ccsc1  1058.55
2    Cc1ccc(C)s1    982.9
3       Cc1cccs1  1016.24

Could you now look at the following compound, please?
Endpoint output: mass density of Cc1ccsc1 . Value?
1017.38

----------
conditions: 323.15 K; 50000 kPa; Liquid; Vibrating tube method
Please respond with reported mass density for every item in the list.
Numbers only, in kg/m3.

> print(dat)
   record.smiles  reading
1    Cc1ccc(C)s1   994.03
2       Cc1ccsc1  1028.76
3       Cc1cccs1  1027.81

Could you now look at the following molecule, please?
Endpoint output: mass density of c1ccsc1 . Value?
1070.98
